Organism: Rattus norvegicus
Assay: Open TG-GATES - Regimen: Single
Format: toxicity, organism-based, Sprague-Dawley
Set-up: regimen Single, gender Male, age 6 weeks
Conditions: in vivo, po, 300 mg/kg, 9 h, tissue Plasma, route gavage, dose level Middle
Assay metric: TG (mg/dL)
Numeric only. Scale: mg/dL

Reference set (2 entries):
{"columns": ["Molecule", "Endpoint value"],
 "data": [
  ["CCOC(=O)CCC(=O)O[C@H]1[C@H](O[C@@H]2[C@@H](C)[C@H](O[C@H]3C[C@@](C)(OC)[C@@H](O)[C@H](C)O3)[C@@H](C)C(=O)O[C@H](CC)[C@@](C)(O)[C@H](O)[C@@H](C)C(=O)[C@H](C)C[C@@]2(C)O)O[C@H](C)C[C@@H]1N(C)C [ERYTHROMYCIN ETHYLSUCCINATE]", 49.8],
  ["COc1ccc2[nH]c([S+]([O-])Cc3ncc(C)c(OC)c3C)nc2c1 (centres undefined) [OMEPRAZOLE]", 74]
]}

Note down TG recorded for NC(N)=Nc1nc(CSCCC(N)=NS(N)(=O)=O)cs1 [FAMOTIDINE] 47.6

State its TG for this molecule: COC1=CC(=O)C[C@@H](C)[C@]12Oc1c(Cl)c(OC)cc(OC)c1C2=O [GRISEOFULVIN] 43

---

Species on record: Rattus norvegicus
Experiment: Open TG-GATES - Regimen: Single
Assay type: toxicity, organism-based, Sprague-Dawley
Design: regimen Single, gender Male, age 6 weeks
Details: in vivo, po, 0 mg/kg, 9 h, tissue Blood, route gavage, dose level Control
Listed next: entries and their corresponding Plat.
Report only the number, with the unit x10_4/uL understood.

Look over these answered cases.
{"columns": ["Molecule", "Plat / x10_4/uL"],
 "data": [
  ["CC1=C(/C=C/C(C)=C/C=C/C(C)=C/CO)C(C)(C)CCC1", 122.4],
  ["CCOc1ccc(NC(=O)CC(C)O)cc1 (configuration not stated)", 114.6],
  ["CCCNC(=O)NS(=O)(=O)c1ccc(Cl)cc1 [CHLORPROPAMIDE]", 119.1],
  ["CN(C)CCN(Cc1cccs1)c1ccccn1", 121.1],
  ["CN(C)CCCN1c2ccccc2CCc2ccc(Cl)cc21", 133.7],
  ["O=C(CCCN1CCC(O)(c2ccc(Cl)cc2)CC1)c1ccc(F)cc1", 103.6],
  ["Cc1ccc(C)c(OCCCC(C)(C)C(=O)O)c1", 110.9],
  ["COc1cc2c(c(OC)c1OC)-c1ccc(OC)c(=O)cc1[C@@H](NC(C)=O)CC2", 111],
  ["CN(C)CCCN1c2ccccc2CCc2ccccc21", 110.6],
  ["CCOC(=O)CCC(=O)O[C@H]1[C@H](O[C@@H]2[C@@H](C)[C@H](O[C@H]3C[C@@](C)(OC)[C@@H](O)[C@H](C)O3)[C@@H](C)C(=O)O[C@H](CC)[C@@](C)(O)[C@H](O)[C@@H](C)C(=O)[C@H](C)C[C@@]2(C)O)O[C@H](C)C[C@@H]1N(C)C [ERYTHROMYCIN ETHYLSUCCINATE]", 118.3]
]}

Output measured Plat for this item: `CN1C(=O)CN=C(c2ccccc2)c2cc(Cl)ccc21` 101.7

Give recorded Plat. `COC1=CC(=O)C[C@@H](C)[C@]12Oc1c(Cl)c(OC)cc(OC)c1C2=O` 117.6

Please give the documented Plat of `NNC(=O)c1ccncc1` 120.7

Give the measured Plat for `C[C@@H]1C[C@H]2[C@@H]3CCC4=CC(=O)C=C[C@]4(C)[C@@]3(F)[C@@H](O)C[C@]2(C)[C@@]1(O)C(=O)CO` 125.1

Given `NC(N)=Nc1nc(CSCCC(N)=NS(N)(=O)=O)cs1` , respond with its Plat. 118.2

Could you please provide reported Plat for COc1ccc2[nH]c([S+]([O-])Cc3ncc(C)c(OC)c3C)nc2c1 (configuration not stated) ? Thanks! 119.3

Consider the molecule `CC/C(=C(\c1ccccc1)c1ccc(OCCN(C)C)cc1)c1ccccc1` and give its recorded Plat. 111.1
